quantity: melting point

Reference set, count: 9
>>> value_measured("COc1cccc([C@H]2O[C@H](CC(=O)Nc3cc(OC(C)C)c4oc(C(=O)O)cc4c3)C(=O)N(CC(C)(C)CO)c3ccc(Cl)cc32)c1OC")
"189 to 190 °C"
>>> value_measured("COC(=O)c1cc(Br)cc([N+](=O)[O-])c1SCc1ccccc1")
"65 to 66 °C"
>>> value_measured("CN1CCC(c2cccc3ccc(-c4cncnc4)cc23)CC1")
"122 to 123 °C"
>>> value_measured("CNCC(O)C1=CSC2C=CC=CC12 (stereo not given)")
"98 to 102 °C"
>>> value_measured("CSc1nc(OC(F)F)cc(OC(F)F)n1")
"46 to 48 °C"
>>> value_measured("NS(=O)(=O)c1ccc(NN=C2C(=O)Nc3ccc(C(=O)NCCn4ccnc4)cc32)cc1")
"> 230 °C"
>>> value_measured("CC(C)(CCc1ccc(Cl)c(Cl)c1)CC(=O)O")
"106 to 108 °C"
>>> value_measured("O=c1c2ccccc2cc2n1CCS2(=O)=O")
"208 to 211 °C"
>>> value_measured("COc1cc(C(=O)N2CCN(C(=O)OC(C)(C)C)C(C(=O)O)C2)cc(OC)c1OC (stereo not given)")
"188 to 190 °C"

Turning to the following molecule.
Measured melting point, Nc1ccnc(SCCCCN2C(=O)c3ccccc3C2=O)n1 : 164 to 167 °C
